Assay method text: in vitro haemolysis of total blood, human
Measurement setup: human, blood
Quantity kind: MNTC

molecule="CCCCCCCCCCCCCC[N+](C)(C)Cc1ccccc1.[F-] [benzalkonium fluoride]" meas_value="≤ 20 µg/mL"
